# Assay summary: Mouse gastrointestinal tissue pharmacokinetics
# Format: in vivo, mice
# Protocol conditions: mouse, ileum, po, Ileum, BKI 1318 alone; read-out: Observed Cmax
Reported endpoint: Cmax

Note down Cmax recorded for `CCOc1ccc2cc(-c3nn(CC4CCNCC4)c4ncnc(N)c34)ccc2n1`
79.8 µM

###

# Assay summary: Mouse gastrointestinal tissue pharmacokinetics
# Assay type: in vivo, mice
# Protocol conditions: mouse, jejunum, po, Jejunum, with elacridar; read-out: Cmax w/ Elacridar
Reported endpoint: Cmax (µM)
Return type: number; implicit unit µM.

Note down Cmax recorded for `CCOc1ccc2cc(-c3nn(CC4CCNCC4)c4ncnc(N)c34)ccc2n1`
98.1

###

# Assay summary: Mouse gastrointestinal tissue pharmacokinetics
# Format: in vivo, mice
# Protocol conditions: mouse, cecum/colon, po, 30 mg/kg, Cecum/Colon, BKI 1318 alone; read-out: Tmax
Reported endpoint: Tmax (h)
Return type: number; implicit unit h.

Note down Tmax recorded for `CCOc1ccc2cc(-c3nn(CC4CCNCC4)c4ncnc(N)c34)ccc2n1`
9.3

###

Catalogue of compounds with associated Papp A→B at 120 min, 5 µM
# Assay summary: Caco-2 trans-well apparent permeability assay
# Format: in vitro ADME
# Protocol conditions: human; Caco-2, 5 µM, 120 minutes, pH 7.4
Return type: number; implicit unit ×10⁻⁶ cm/s.

Guide cases for Papp A→B at 120 min, 5 µM, answers given:
{"Compound": "CC(C)NCC(O)COc1cccc2ccccc12 (stereo not shown) [Propranolol, reference compound]", "Recorded value": 23.2}
{"Compound": "CCOc1ccc2cc(-c3nn(CC4CCNCC4)c4ncnc(N)c34)ccc2n1 [BKI1318]", "Recorded value": 0.29}
{"Compound": "CCOc1ccc2cc(-c3nn(CC4CCN(C)CC4)c4ncnc(N)c34)ccc2c1 [BKI1294]", "Recorded value": 12.7}

Now for the compound whose Papp A→B at 120 min, 5 µM we want.
Note down Papp A→B at 120 min, 5 µM recorded for CCOc1ccc2cc(-c3nn(CC4CCN(C)CC4)c4ncnc(N)c34)ccc2n1 [BKI1369]
12.4

###

# Assay summary: Mouse gastrointestinal tissue pharmacokinetics
# Format: in vivo, mice
# Protocol conditions: mouse, duodenum, po, Duodenum, with elacridar; P≤0.001; read-out: AUC0-12 w/ Elacridar
Reported endpoint: AUC(0-t) (µM·h)
Return type: number; implicit unit µM·h.

Note down AUC(0-t) recorded for `CCOc1ccc2cc(-c3nn(CC4CCNCC4)c4ncnc(N)c34)ccc2n1`
537

###

# Assay summary: Caco-2 trans-well apparent permeability assay
# Format: in vitro ADME
# Protocol conditions: human, pH 7.4; Caco-2, 5 µM
Reported endpoint: efflux ratio at 120 min, 5 µM

Note down efflux ratio at 120 min, 5 µM recorded for `CCOc1ccc2cc(-c3nn(CC4CCNCC4)c4ncnc(N)c34)ccc2n1`
69

###

# Assay summary: Mouse gastrointestinal tissue pharmacokinetics
# Assay type: in vivo, mice
# Protocol conditions: mouse, ileum, po, Ileum, with elacridar; read-out: Tmax w/ Elacridar
Reported endpoint: Tmax (h)
Return type: number; implicit unit h.

Note down Tmax recorded for `CCOc1ccc2cc(-c3nn(CC4CCNCC4)c4ncnc(N)c34)ccc2n1`
2

###

# Assay summary: Mouse gastrointestinal tissue pharmacokinetics
# Assay type: in vivo, mice
# Protocol conditions: mouse, jejunum, oral, elacridar in Jejunum; read-out: Tmax
Reported endpoint: Tmax

Note down Tmax recorded for COc1cc2c(cc1OC)CN(CCc1ccc(NC(=O)c3cccc4c(=O)c5cccc(OC)c5[nH]c34)cc1)CC2 [elacridar, reference compound]
36 min
